Where do these numbers come from? They come from ChEMBL document CHEMBL6177963.

TARGET: Replicase polyprotein 1ab (Severe acute respiratory syndrome coronavirus 2, UniProt P0DTD1)
EXPERIMENTAL_PROTOCOL: Inhibition of recombinant SARS-CoV-2 PLpro using TLKGGI-AMC as substrate assessed as assessed as inhibition constant ny measuring fluorescence signal measured after 15 mins
CONDITION_DETAILS: read-out: Ki
Listing: Ki of selected molecules
# value in nM; strip the unit string

[
  {
    "SMILES_INPUT": "O=C(NNc1ncc(-c2ccc(Cl)cc2)s1)c1cccc(Cl)c1",
    "READOUT": "Ki",
    "VAL": 4230
  },
  {
    "SMILES_INPUT": "CCOC(=O)c1sc(NNC(=O)c2ccc(Br)cc2)nc1C",
    "READOUT": "Ki",
    "VAL": 500
  },
  {
    "SMILES_INPUT": "Cc1ccc(-c2csc(NNC(=O)c3ccc([N+](=O)[O-])cc3)n2)cc1",
    "READOUT": "Ki",
    "VAL": 1250
  }
]

Ask | Report Ki, nothing else, for this molecule: CCOC(=O)c1sc(NNC(=O)c2cccs2)nc1C
Reply | 230

Ask | Indicate the recorded Ki value for this molecule: CCOC(=O)c1sc(NNC(=O)c2ccc(C)cc2)nc1C
Reply | 230

Ask | Supply reported Ki belonging to this molecule: O=C(NNc1ncc(-c2ccc(Cl)cc2)s1)c1ccc2ccccc2c1
Reply | 2130

Ask | Hello, please tell me recorded Ki for this one: Cc1ccc(-c2csc(NNC(=O)c3ccc(F)cc3)n2)cc1
Reply | 340

---

System: Severe acute respiratory syndrome coronavirus 2
EXPERIMENTAL_PROTOCOL: Binding affinity to SARS-CoV-2 MPro assessed as thermal stability by measuring melting temperature of half of the proteins unfolded by differential scanning fluorimetry (DSF) (reference value: 52.46 degC)
READOUT: Tm (°C)
Express the result in °C but write the number alone.

For orientation, consider the following solved cases.
[
  {
    "SMILES_INPUT": "CCOC(=O)c1sc(NNC(=O)c2ccc(Br)cc2)nc1C",
    "RESULT_UNITS": "°C",
    "VAL": 49.7
  },
  {
    "SMILES_INPUT": "CCOC(=O)c1sc(NNC(=O)c2ccc([N+](=O)[O-])cc2)nc1C",
    "RESULT_UNITS": "°C",
    "VAL": 51
  },
  {
    "SMILES_INPUT": "O=C(NNc1nc(-c2ccc(Br)cc2)cs1)c1ccc(F)cc1",
    "RESULT_UNITS": "°C",
    "VAL": 51.1
  },
  {
    "SMILES_INPUT": "Cc1ccc(-c2csc(NNC(=O)c3ccc([N+](=O)[O-])cc3)n2)cc1",
    "RESULT_UNITS": "°C",
    "VAL": 52.6
  },
  {
    "SMILES_INPUT": "CCOC(=O)c1sc(NNC(=O)c2cccs2)nc1C",
    "RESULT_UNITS": "°C",
    "VAL": 49.8
  },
  {
    "SMILES_INPUT": "Oc1ccc(/C=N/Nc2nc(-c3ccc(Cl)cc3)cs2)cc1",
    "RESULT_UNITS": "°C",
    "VAL": 51.4
  },
  {
    "SMILES_INPUT": "CCOC(=O)c1sc(NNC(=O)/C=C/c2ccccc2)nc1C",
    "RESULT_UNITS": "°C",
    "VAL": 49.9
  },
  {
    "SMILES_INPUT": "CCOC(=O)c1sc(NNC(=O)c2ccc(Cl)cc2)nc1C",
    "RESULT_UNITS": "°C",
    "VAL": 52.1
  },
  {
    "SMILES_INPUT": "Cc1ccc(C(=O)NNc2nc(-c3ccc(Cl)cc3)cs2)cc1",
    "RESULT_UNITS": "°C",
    "VAL": 51.8
  }
]

Ask | Dear colleague, please send me the reported Tm for O=c1c2ccccc2[se]n1-c1ccccc1 when you can.
Reply | 52.4

---

EXPERIMENTAL_PROTOCOL: Acute toxicity in rat assessed as toxicity at 175 to 2000 mg/kg, po measured for 14 days
Type: organism-based
CONDITION_DETAILS: in vivo, dose 175-2000 mg/kg, time 14 day
LD50 at 336 h: recorded values

[
  {
    "SMILES_INPUT": "CCOC(=O)c1sc(NNC(=O)c2ccc([N+](=O)[O-])cc2)nc1C",
    "VAL": "> 2000 mg/kg"
  }
]

Read the next record carefully.
Ask | Quote LD50 at 336 h reported for CCOC(=O)c1sc(NNC(=O)/C=C/c2ccccc2)nc1C please.
Reply | > 2000 mg/kg

---

TARGET: Replicase polyprotein 1ab (Severe acute respiratory syndrome coronavirus 2, UniProt P0DTD1)
READOUT: IC50 (µM)
Answer with a number only, understood to be in µM.

Ask | Determine its reported IC50: O=C(O)c1cc(F)c2nc(N3[C@@H]4CC[C@H]3C[C@@H](OCc3c(-c5ccccc5OC(F)(F)F)noc3C3CC3)C4)sc2c1 [TROPIFEXOR]
Reply | 5.11

---

Tested on: SARS-CoV-2
EXPERIMENTAL_PROTOCOL: Antiviral activity against SARS-CoV-2 infected in African green monkey Vero E6 cells assessed as viral reduction by measuring viral RNA measured up to 72 hrs by RT-PCR analysis
Format: functional, organism-based
CONDITION_DETAILS: Severe acute respiratory syndrome coronavirus 2, SARS-CoV-2, Vero C1008, 72 h
pEC50: −log10 of the molar value.
Give YES when the value for pEC50 is at least 7. Give NO when it is less.

[
  {
    "SMILES_INPUT": "CCOC(=O)c1sc(NNC(=O)/C=C/c2ccccc2)nc1C",
    "TARGET": "SARS-CoV-2",
    "GROUP": "NO"
  },
  {
    "SMILES_INPUT": "O=C(NNc1nc(-c2ccc(Cl)cc2)cs1)c1ccc(F)cc1",
    "TARGET": "SARS-CoV-2",
    "GROUP": "YES"
  }
]

Turning to the following compound.
Ask | Would you say Cc1ccc(-c2csc(NNC(=O)c3ccc(F)cc3)n2)cc1 shows pEC50 at minimum 7?
Reply | YES

---

List of log10(Ki) values.
TARGET: Replicase polyprotein 1ab (Severe acute respiratory syndrome coronavirus 2)
EXPERIMENTAL_PROTOCOL: Inhibition of recombinant SARS-CoV-2 PLpro using TLKGGI-AMC as substrate assessed as assessed as inhibition constant ny measuring fluorescence signal measured after 15 mins
CONDITION_DETAILS: read-out: Ki
Please interpret these as log10 of Ki where Ki is in nM.

[
  {
    "SMILES_INPUT": "CCOC(=O)c1sc(NNC(=O)c2ccc3ccccc3c2)nc1C",
    "TARGET": "Replicase polyprotein 1ab (Severe acute respiratory syndrome coronavirus 2)",
    "READOUT": "log10(Ki)",
    "VAL": 2.82
  },
  {
    "SMILES_INPUT": "Cc1ccc(C(=O)NNc2nc(-c3ccc(Cl)cc3)cs2)cc1",
    "TARGET": "Replicase polyprotein 1ab (Severe acute respiratory syndrome coronavirus 2)",
    "READOUT": "log10(Ki)",
    "VAL": 2.38
  },
  {
    "SMILES_INPUT": "O=C(NNc1nc(-c2ccc(Br)cc2)cs1)c1ccc(F)cc1",
    "TARGET": "Replicase polyprotein 1ab (Severe acute respiratory syndrome coronavirus 2)",
    "READOUT": "log10(Ki)",
    "VAL": 2.18
  },
  {
    "SMILES_INPUT": "O=C(NNc1nc(-c2ccc(Br)cc2)cs1)c1ccc(Cl)cc1",
    "TARGET": "Replicase polyprotein 1ab (Severe acute respiratory syndrome coronavirus 2)",
    "READOUT": "log10(Ki)",
    "VAL": 3.24
  },
  {
    "SMILES_INPUT": "CCOC(=O)c1sc(NNC(=O)c2ccc([N+](=O)[O-])cc2)nc1C",
    "TARGET": "Replicase polyprotein 1ab (Severe acute respiratory syndrome coronavirus 2)",
    "READOUT": "log10(Ki)",
    "VAL": 2.65
  }
]

Ask | Return reported log10(Ki). Input compound: Oc1ccc(/C=N/Nc2nc(-c3ccc(Cl)cc3)cs2)cc1
Reply | 2.46

---

// viability at 48 h, 100 µM lookup, one value per entry
EXPERIMENTAL_PROTOCOL: Cytotoxicity against African green monkey Vero E6 cells assessed as cell viability at 100 uM measured after 48 hrs by MTT assay relative to control
Format: toxicity, cell-based, Vero C1008
CONDITION_DETAILS: chlorocebus sabaeus, read-out: Activity
Respond with the bare value in %.

The following compounds have reported results that may help.
[
  {
    "SMILES_INPUT": "CCOC(=O)c1sc(NNC(=O)/C=C/c2ccccc2)nc1C",
    "RESULT_UNITS": "%",
    "viability at 48 h, 100 µM": 87.5
  },
  {
    "SMILES_INPUT": "Cc1ccc(-c2csc(NNC(=O)c3ccc(F)cc3)n2)cc1",
    "RESULT_UNITS": "%",
    "viability at 48 h, 100 µM": 92.1
  },
  {
    "SMILES_INPUT": "CCOC(=O)c1sc(NNC(=O)c2cccs2)nc1C",
    "RESULT_UNITS": "%",
    "viability at 48 h, 100 µM": 87.9
  },
  {
    "SMILES_INPUT": "Cc1ccc(C(=O)NNc2nc(-c3ccc(Cl)cc3)cs2)cc1",
    "RESULT_UNITS": "%",
    "viability at 48 h, 100 µM": 91.5
  }
]

Please examine the following record next.
Ask | Identify the reported viability at 48 h, 100 µM for the following entry. O=C(NNc1nc(-c2ccc(Br)cc2)cs1)c1ccc(F)cc1
Reply | 91.8
